test: AUC (0 to infinity) in athymic BALB/c nude mouse xenografted with mouse BaF3 cells at 150 mg/kg, po administered for 24 hrs by HPLC analysis; assay type: ADME, organism-based; settings: in vivo
Recorded Endpoint: AUC(0-inf) (ng·h/mL)

{"Compound": "C1=C/COCc2cc(ccc2OCCN2CCCC2)Nc2nccc(n2)-c2cccc(c2)COC/1 [PACRITINIB]", "Recorded Endpoint": "AUC(0-inf)", "Recorded Number": 220}

====

test system: PC-3; experiment: Antiproliferative activity against human PC-3 cells assessed as inhibition of cell viability incubated for 48 hrs by CellTiterGlo assay; assay type: functional, cell-based; details: PC-3, 48 h
pIC50: −log10 of the molar value.
Recorded Endpoint: pIC50

{"Structure Smiles": "C1=N/C2=N/c3ccc(OCCN4CCCC4)c(c3)COC/C=C/COCc3cccc(c3)C(=C1)N2", "Recorded Number": 6.11}
